Tested on: NL-RLuc virus (recombinant HIV NL4-3 with Renilla Luciferase) in MT-2 cells
Protocol Notes: Inhibition of HIV replication (NL-RLuc virus in MT-2 cells, luciferase readout)
Type: cell-based, human immunodeficiency virus (HIV)
Measurement Setup: MT2, 120 h, NL-RLuc virus infecting MT-2 cells, 5 days of incubation, 10% FBS, luciferase quantitation; at least 2 experiments
Overview of reported pEC50 across a group of compounds:
Notebook: values listed as pEC50 are -log10 of the concentration (mol/L).

Below: 2 compounds and their reported pEC50.
{"Substance Smiles": "Cc1nc2cc3nn2c(c1[C@H](OC(C)(C)C)C(=O)O)N1CCC(C)(CC1)OCCCCc1ccccc1COC3", "Target": "NL-RLuc virus (recombinant HIV NL4-3 with Renilla Luciferase) in MT-2 cells", "Metric Name": "pEC50", "Reading": 8.52}
{"Substance Smiles": "Cc1nc2cc3nn2c(c1[C@H](OC(C)(C)C)C(=O)O)N1CCC(C)(CC1)OCCCCOc1cccc(c1)-c1cn(nn1)C3", "Target": "NL-RLuc virus (recombinant HIV NL4-3 with Renilla Luciferase) in MT-2 cells", "Metric Name": "pEC50", "Reading": 7.10}

# input for lookup
Reported pEC50 for `Cc1nc2cc3nn2c(c1[C@H](OC(C)(C)C)C(=O)O)N1CCC(C)(CC1)OCCCC[C@H](C)Oc1ccc(F)cc1COC3` was 8.30

---

System: NL-RLuc virus (recombinant HIV NL4-3 with Renilla Luciferase) in MT-2 cells
Protocol Notes: Inhibition of HIV replication (NL-RLuc virus in MT-2 cells, luciferase readout)
Format: cell-based, human immunodeficiency virus (HIV)
Measurement Setup: MT2, 120 h, NL-RLuc virus infecting MT-2 cells, 5 days of incubation, 10% FBS, luciferase quantitation; at least 2 experiments
Overview of reported EC50 across a group of compounds:
The reply should be a number in nM, with the unit left off.

Below: 4 compounds and their reported EC50.
{"Compound": "Cc1ccc2c(c1)O[C@@H](C)CCCCOC1(C)CCN(CC1)c1c([C@H](OC(C)(C)C)C(=O)O)c(C)nc3cc(nn13)CO[C@H]2C (single isomer, unassigned)", "Target": "NL-RLuc virus (recombinant HIV NL4-3 with Renilla Luciferase) in MT-2 cells", "Metric Name": "EC50", "Reading": 7}
{"Compound": "Cc1nc2cc3nn2c(c1[C@H](OC(C)(C)C)C(=O)O)N1CCC(C)(CC1)OCCCCCc1cc(F)ccc1COC3", "Target": "NL-RLuc virus (recombinant HIV NL4-3 with Renilla Luciferase) in MT-2 cells", "Metric Name": "EC50", "Reading": 13}
{"Compound": "Cc1nc2cc3nn2c(c1[C@H](OC(C)(C)C)C(=O)O)N1CCC(C)(CC1)OCC=Cc1cc(C(F)(F)F)ccc1COC3", "Target": "NL-RLuc virus (recombinant HIV NL4-3 with Renilla Luciferase) in MT-2 cells", "Metric Name": "EC50", "Reading": 32}
{"Compound": "Cc1nc2cc3nn2c(c1[C@H](OC(C)(C)C)C(=O)O)N1CCC(C)(CC1)OCCCC[C@H](C)Oc1c(F)cc(F)cc1CCC3", "Target": "NL-RLuc virus (recombinant HIV NL4-3 with Renilla Luciferase) in MT-2 cells", "Metric Name": "EC50", "Reading": 10}

For `Cc1cc(CN2CCCCOC3(C)CCN(CC3)c3c([C@H](OC(C)(C)C)C(=O)O)c(C)nc4cc(nn34)CNC(=O)C2=O)ccc1F` on NL-RLuc virus (recombinant HIV NL4-3 with Renilla Luciferase) in MT-2 cells, measured EC50 was 34

The reported measurements were obtained from patent US9273067B2.
